inhibition at 100 µM reference
# Tested on: HCT116 cells
# testDescription: Whole cell cytotoxicity assay: Sulforhodamine B
# Assay type: cell-based
# testConditions: Homo sapiens, HCT-116; 100 μM compound; 48 hours incubation with drug; Sulforhodamine B staining; read-out: % Inhibition of HCT116 cell growth @ 100 μM
Field: numeric (%). Do not append units.

O=C(NO)c1cnc(N2CCc3[nH]c4ccc(-c5ccc(F)cc5)cc4c3C2)nc1 | 98.9
O=C(NO)c1cnc(N2CCc3[nH]c4ccc(-c5cccc(CN6CCCC6)c5)cc4c3C2)nc1 | 98.1
O=C(NO)c1cnc(N2CCc3[nH]c4ccccc4c3CC2)nc1 | 99.3

Query: Entry under review: O=C(NO)c1cnc(N2CCc3c([nH]c4ccc(F)cc34)C2)nc1 . Reported inhibition at 100 µM?
Result: 98.9

Query: Entry O=C(NO)c1cnc(N2CCc3c([nH]c4ccccc34)C2)nc1 : reported inhibition at 100 µM = ?
Result: 99.3
